B1: ZBED3 (parent)
chain: GPGFHAGTSALWRHLRSAHRRELE

Variants of: B1
protocol.description: protein stability index of a GFP-peptide fusion (GPS, HEK-293T) (PSI 1-6); higher = more stable;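 note: lentivirally expressed fusions sorted by FACS into six bins by GFP to DsRed ratio, PSI derived from sequencing read proportions per bin multiplied by bin number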
test.parameters: c terminus: a fixed tail appended
endpoint.name: protein stability index
// print number alone

- variant.identifier: "R20K"
  protein stability index: 2.54
- variant.identifier: "F4L"
  protein stability index: 3.3
- variant.identifier: "L11A"
  protein stability index: 1.71
- variant.identifier: "H5Y"
  protein stability index: 2.89
- variant.identifier: "R13L"
  protein stability index: 1.79
- variant.identifier: "A6Q"
  protein stability index: 2.59

[ask] Recorded protein stability index for `G1E` , please?
[reply] 3.11

[ask] Recorded protein stability index for `L11G` , please?
[reply] 1.74

[ask] Recorded protein stability index for `W12R` , please?
[reply] 3.35
